# method: melting temperature; fluorescence melt of hairpins on a sequencing array, two-state fit, raised by 9.35 °C to match UV melts
# cond: sodium 0.088 M
Tick T if Tm is 50 °C or greater. Tick F if Tm is less than 50 °C.

[
  {
    "construct.sequence": "GGTAAGGGAAACCTTACC (((((((....)))))))",
    "cat": "T"
  }
]

Enquiry: Item GCCCATGGAAACATGGAC (.(((((....))))).) with Tm of 50 °C or above?
Return: F

Enquiry: Has GATCACCGTAGTGATC ((((((....)))))) a recorded Tm greater than or equal to 50 °C?
Return: T

Enquiry: Does the reported Tm for GTGGCAGGAAACTGCTGC (..((((....))))..) fall at or above the 50 °C mark?
Return: F

Enquiry: Reported Tm at or above 50 °C? GAGGGACGAAAGTCGCTC (((.(((....))).)))
Return: T
